Hey, just so you know, these numbers are from the supplement of paper PMC10307832.

test system: BEN; assay: relative viability (nuclei count vs DMSO), 5 days (fraction); higher = more cells survive; conditions: first compound 1.265 µM
Provide the recorded relative viability for the entries that follow.
Just the number, please, no unit attached.

Ask | Need relative viability, item Clc1ccc(Nc2nnc(Cc3ccncc3)c3ccccc23)cc1 [Vatalanib] + N=C(N)NC(=N)NCCc1ccccc1 [Phenformin] (partner 250 µM)
Reply | 0.231

Ask | // lookup relative viability for COc1cc(N2CCC(C(N)=O)CC2)ccc1Nc1nc(N)c(Cl)c(Nc2ccccc2S(=O)(=O)C(C)C)n1 [HG-5-88-01] + CCNC(=O)c1noc(-c2cc(C(C)C)c(O)cc2O)c1-c1ccc(CN2CCOCC2)cc1 [Luminespib] (partner 0.01 µM)
Reply | 0.465

Ask | Name the recorded relative viability for Clc1ccc(Nc2nnc(Cc3ccncc3)c3ccccc23)cc1 [Vatalanib] + Nc1nc2[nH]cc(CCc3ccc(C(=O)N[C@@H](CCC(=O)O)C(=O)O)cc3)c2c(=O)[nH]1 [Pemetrexed] (partner 0.2 µM) .
Reply | 0.681

Ask | Using the record for COc1cc(N2CCC(C(N)=O)CC2)ccc1Nc1nc(N)c(Cl)c(Nc2ccccc2S(=O)(=O)C(C)C)n1 [HG-5-88-01] + Cc1nc(Nc2ncc(C(=O)Nc3c(C)cccc3Cl)s2)cc(N2CCN(CCO)CC2)n1 [Dasatinib] (partner 0.075 µM) , report its relative viability.
Reply | 0.319
